I'd appreciate it if you could supply Internalized fraction values for the items below.
tested on: HT-1080.hFAP (FAP-positive) cells; test: In vitro cellular uptake (cell surface-bound and internalized fractions); type: cell-based, human; conditions: 60 min, 37° C., specific uptake (HT-1080.wt subtracted)

Hi! What's the reported Internalized fraction for N#CC1CC(F)(F)CN1C(=O)CNC(=O)c1ccnc2ccc(NC(=O)CCC(=O)NCCNC(=O)CCC(C(=O)O)N3CCN(CC(=O)[O-])CCN(CC(=O)[O-])CC3)cc12.[61Cu+2] (centres unmarked) [[^61Cu]Cu-NODAGA-1] on HT-1080.hFAP (FAP-positive) cells?
29.9 ± 1.8 % of the applied activity

Given the entry CN(C(=O)CCC(=O)NCCNC(=O)CCC(C(=O)O)N1CCN(CC(=O)[O-])CCN(CC(=O)[O-])CC1)c1ccc2nccc(C(=O)NCC(=O)N3CC(F)(F)CC3C#N)c2c1.[61Cu+2] (centres unmarked) [[^61Cu]Cu-NODAGA-2] , what Internalized fraction was observed with HT-1080.hFAP (FAP-positive) cells?
27.0 ± 6.9 % of the applied activity

Quick check: Internalized fraction on HT-1080.hFAP (FAP-positive) cells, item N#CC1CC(F)(F)CN1C(=O)CNC(=O)c1ccnc2ccc(NC(=O)CCC(=O)N3CCN(C(=O)CCC(C(=O)O)N4CCN(CC(=O)[O-])CCN(CC(=O)[O-])CC4)CC3)cc12.[61Cu+2] (centres unmarked) [[^61Cu]Cu-NODAGA-3] ?
36.9 ± 5.3 % of the applied activity

Any idea what Internalized fraction came out for CN(C(=O)CCC(=O)N1CCN(C(=O)CCC(C(=O)O)N2CCN(CC(=O)[O-])CCN(CC(=O)[O-])CC2)CC1)c1ccc2nccc(C(=O)NCC(=O)N3CC(F)(F)CC3C#N)c2c1.[61Cu+2] (centres unmarked) [[^61Cu]Cu-NODAGA-4] on HT-1080.hFAP (FAP-positive) cells?
22.2 ± 5.1 % of the applied activity

Which measured Internalized fraction belongs to CN(CCCN1CCN(C(=O)CCC(C(=O)O)N2CCN(CC(=O)[O-])CCN(CC(=O)[O-])CC2)CC1)c1ccc2nccc(C(=O)NCC(=O)N3CC(F)(F)CC3C#N)c2c1.[61Cu+2] (centres unmarked) [[^61Cu]Cu-NODAGA-FAPI-46, reference compound] , tested on HT-1080.hFAP (FAP-positive) cells?
36.1 ± 1.6 % of the applied activity
